assay: recombinant UMI read abundance after kanamycin selection (control-corrected) (log10(CPM+1)); higher = more efficient recombination; extreme values may be limits of the assay; sequences stand for … in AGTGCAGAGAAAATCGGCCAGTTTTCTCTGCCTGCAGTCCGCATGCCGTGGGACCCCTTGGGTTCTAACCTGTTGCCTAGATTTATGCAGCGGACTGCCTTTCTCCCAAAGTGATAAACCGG…AGGTTGGTTTCACT; site = the 11-nt donor;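 further: IS621 bridge recombinase in Escherichia coli cells against a fixed T5 target plasmid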
Rule: recombinant UMI read abundance (log10) of 0.3 or more gives 1; anything lower gives 0.

>  <polymerSequence>
GAATAGCCATGGACCGGTTTTCCCGGTAATCCGTATTTGCA (site GAATGGCCTTG)

>  <qualitativeLabel>
0

$$$$
>  <polymerSequence>
ATCTATACATGGACCGGTTTTCCCGGTAATCCGTATTTGAC (site ATCTACACTGT)

>  <qualitativeLabel>
1

$$$$
>  <polymerSequence>
ATAGACTCATGGACCGGTTTTCCCGGTAATCCGTATTTGGT (site ATAGACTCTAC)

>  <qualitativeLabel>
1

$$$$

Record GATTGGACATGGACCGGTTTTCCCGGTAATCCGTATTTGAT (site GATTGGACTAT) ; criterion: recombinant UMI read abundance (log10) no lower than 0.3. Met?
1

Record AAGCACGCATGGACCGGTTTTCCCGGTAATCCGTATTTGAG (site AAGCACGCTCG) ; criterion: recombinant UMI read abundance (log10) no lower than 0.3. Met?
1

Record CTTCTCTCATGGACCGGTTTTCCCGGTAATCCGTATTTGGA (site CTTCTCTCTTG) ; criterion: recombinant UMI read abundance (log10) no lower than 0.3. Met?
0
